Reference source for all entries: ChEMBL document CHEMBL1149637

assay: Metabolic stability assessed as half life in Sclerotina sclerotiorum; type: ADME, organism-based; details: sclerotinia sclerotiorum, Sclerotinia sclerotiorum (whole organism)
measured attribute: half-life (h)
Numbers only, in h.

Prompt: Can you share its half-life? I mean this compound: CSC(=S)NCc1c[nH]c2ccccc12 [BRASSININ]
Completion: 9

###

tested on: Sclerotinia sclerotiorum; test: Inhibition of Sclerotina sclerotiorums brassinin glucosyl transferase assessed as specific activity at 0.60 mM
// assign y if Activity (10^-10.mol/mg/min) falls strictly below 0.6, else n (ties count as n)

>>> df
                smiles_text  class_assignment
0  c1ccc(-c2coc3ccccc23)cc1                 n
1    CSC(=S)NCc1cc2ccccc2o1                 y

Prompt: Take the compound `CSC(=S)NCc1csc2ccccc12` and say whether its Activity (10^-10.mol/mg/min) is less than 0.6.
Completion: n

Prompt: Take the compound `Fc1ccc2c(-c3ccccc3)c[nH]c2c1` and say whether its Activity (10^-10.mol/mg/min) is less than 0.6.
Completion: y
